Target: P. falciparum apicoplast DNA polymerase (Pf-apPOL) (Plasmodium falciparum)
Test: Fluorescence-based high-throughput DNA polymerase assay (molecular beacon), primary screen and dose-response
Assay type: biochemical
Settings: DRC-2; 90'; conc 10
measuredEndpoint: % inhibition ApPOL 90'
Respond with the figure and its unit, in that order.

Before answering, review these 2 worked examples.
INSERT INTO results (molecule, reading) VALUES
  ('N#CC(C#N)=C1SCN(c2cccc(Cl)c2)CS1 [Molecule 29, N#CC(=C1SCN(CS1)c1cccc(c1)Cl)C#N]', '56%'),
  ('CCOc1nc2cccc(C(=O)OC(C)OC(=O)OC3CCCCC3)c2n1Cc1ccc(-c2ccccc2-c2nnn[nH]2)cc1 (centres unmarked) [Molecule 94]', '59%');

So what % inhibition ApPOL 90' did CC(C)CCNC(=O)c1cnn2c(O)cc(CSc3ccc(Cl)cc3)nc12 [Molecule 101] get with P. falciparum apicoplast DNA polymerase (Pf-apPOL) (Plasmodium falciparum)?
66%

So what % inhibition ApPOL 90' did O=C(O)c1ccc(COc2cc([N+](=O)[O-])cc3cccnc23)cc1 [KU0058403] get with P. falciparum apicoplast DNA polymerase (Pf-apPOL) (Plasmodium falciparum)?
19%

So what % inhibition ApPOL 90' did Cc1ccc(N2NC(=O)/C(=C\c3ccc(O)c([N+](=O)[O-])c3)C2=O)cc1Cl [KU0058427] get with P. falciparum apicoplast DNA polymerase (Pf-apPOL) (Plasmodium falciparum)?
28%

So what % inhibition ApPOL 90' did Cc1cccc(NC(=O)Cn2ccc3c(=O)[nH]ccc32)c1C [Molecule 11, O=C(Cn1ccc2c1cc[nH]c2=O)Nc1cccc(c1C)C] get with P. falciparum apicoplast DNA polymerase (Pf-apPOL) (Plasmodium falciparum)?
58%

So what % inhibition ApPOL 90' did Cc1ccc(NC(=O)Cn2ccc3c(=O)[nH]ccc32)c(C)c1 [KU0205125] get with P. falciparum apicoplast DNA polymerase (Pf-apPOL) (Plasmodium falciparum)?
15%

So what % inhibition ApPOL 90' did C=CC1=C(C)c2cc3[nH]c(cc4nc(cc5[nH]c(cc1n2)c(C)c5CCC(=O)O)C(CCC(=O)O)=C4C)c(C)c3C=C [Molecule 91] get with P. falciparum apicoplast DNA polymerase (Pf-apPOL) (Plasmodium falciparum)?
74%

----------
Examples of compounds with documented % inhibition apPOL 180' follow.
Molecular target: P. falciparum apicoplast DNA polymerase (Pf-apPOL) (Plasmodium falciparum, UniProt Q8ILY1)
Sequence (Q8ILY1 entry or part of it): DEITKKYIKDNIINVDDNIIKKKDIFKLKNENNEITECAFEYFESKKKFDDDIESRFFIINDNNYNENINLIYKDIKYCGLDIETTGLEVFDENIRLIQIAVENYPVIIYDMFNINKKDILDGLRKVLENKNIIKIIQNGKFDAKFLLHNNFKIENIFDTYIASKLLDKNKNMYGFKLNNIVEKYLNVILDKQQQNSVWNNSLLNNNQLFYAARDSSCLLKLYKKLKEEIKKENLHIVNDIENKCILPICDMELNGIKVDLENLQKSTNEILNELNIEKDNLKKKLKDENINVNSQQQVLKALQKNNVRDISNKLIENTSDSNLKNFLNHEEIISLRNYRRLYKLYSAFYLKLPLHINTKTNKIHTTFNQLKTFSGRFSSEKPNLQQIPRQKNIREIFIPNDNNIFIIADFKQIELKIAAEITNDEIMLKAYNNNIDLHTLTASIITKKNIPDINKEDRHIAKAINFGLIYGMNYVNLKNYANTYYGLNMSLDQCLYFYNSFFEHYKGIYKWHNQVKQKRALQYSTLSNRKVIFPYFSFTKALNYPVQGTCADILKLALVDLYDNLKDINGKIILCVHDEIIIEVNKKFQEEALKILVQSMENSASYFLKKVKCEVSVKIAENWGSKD
Experiment: Fluorescence-based high-throughput DNA polymerase assay (molecular beacon), primary screen and dose-response;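 on % inhibition apPOL 180': test concentration in µM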
Format: biochemical
Conditions: DRC-1; 180'; concentration 80
Output spec: scalar in %, unitless text.

Before answering, review these 4 worked examples.
INSERT INTO assay_data (compound, uom, reading) VALUES
  ('CSC1=C(C#N)C(=C(C#N)C#N)NC(c2ccccc2)=N1 [Molecule 2, CSc1nc([nH]c(=C(C#N)C#N)c1C#N)c1ccccc1]', '%', 97.316),
  ('Cc1nn(CC(=O)NCCSCc2ccco2)c(C)c1Br', '%', 39.2205),
  ('CN(C)C1C(c2ccccc2)=C(c2ccccc2)SC(c2ccccc2)C1[N+](=O)[O-] (stereo not drawn)', '%', 80.8354),
  ('O=C(CSc1nnc(-c2ccco2)[nH]1)c1ccc(Cl)cc1', '%', 74.7958);

Please give the measured % inhibition apPOL 180' for this compound: O=[N+]([O-])c1cc2c(cc1CN1CCN(c3cccc(Cl)c3)CC1)OCO2
41.754

Please give the measured % inhibition apPOL 180' for this compound: Cn1nc(C(=O)N2CCc3c(nc4cc(-c5ccccc5)[nH]n4c3=O)C2)c2ccccc21
34

----------
Molecular target: P. falciparum apicoplast DNA polymerase (Pf-apPOL) (Plasmodium falciparum, UniProt Q8ILY1)
Experiment: Fluorescence-based high-throughput DNA polymerase assay (molecular beacon), primary screen and dose-response;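 on % inhibition apPOL 180': test concentration in µM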
Format: biochemical
Settings: DRC-1; 180'; concentration 10
# binarize % inhibition apPOL 180': threshold 10% inclusive, high side satisfied, low side not satisfied

Consider the following illustrative entries.
INSERT INTO measurements (substancesmiles, grouplabel) VALUES
  ('Oc1cccc2ccc(/C=C/c3ccc4c(c3)OCO4)nc12', 'satisfied'),
  ('NS(=O)(=O)c1ccc(NC(=O)c2ccc(N3C(=O)CCC3=O)cc2)cc1', 'not satisfied'),
  ('O=C1C(=Cc2ccncc2)Oc2c1ccc1c2CN(Cc2ccc3c(c2)OCO3)CO1', 'satisfied'),
  ('CC(=O)Nc1cc(C(=O)NC(C)C)c2ccc(C)nc2c1', 'not satisfied');

# next compound below
Entry O=[N+]([O-])/C=C/c1ccc(-c2ccc(Br)cc2)o1 : is its % inhibition apPOL 180' no less than 10%?
satisfied

----------
Molecular target: P. falciparum apicoplast DNA polymerase (Pf-apPOL) (Plasmodium falciparum)
Test: Fluorescence-based high-throughput DNA polymerase assay (molecular beacon), primary screen and dose-response
Assay type: biochemical
Conditions: DRC-2; 180'; concentration 10
measuredEndpoint: % inhibition apPOL 180'

Please give the measured % inhibition apPOL 180' for this compound: CN(C)S(=O)(=O)Oc1ccc(-c2noc(-c3ccc(Oc4cc(Cl)cc(Cl)c4)o3)n2)cc1 [KU0263859]
20%

----------
Examples of molecules with documented % inhibition apPOL 180' follow.
Molecular target: P. falciparum apicoplast DNA polymerase (Pf-apPOL) (Plasmodium falciparum, UniProt Q8ILY1)
Assay: Fluorescence-based high-throughput DNA polymerase assay (molecular beacon), primary screen and dose-response;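 on % inhibition apPOL 180': test concentration in µM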
Type: biochemical
Conditions: DRC-2; 180'; concentration 10
Respond with the figure and its unit, in that order.

Before answering, review these 5 worked examples.
INSERT INTO results (molecule, assayedsystem, measuredendpoint, reading) VALUES
  ('Cc1ccc(C)n1-c1ccc(C(=O)NNC(=O)c2ccc3nccnc3c2)cc1', 'P. falciparum apicoplast DNA polymerase (Pf-apPOL) (Plasmodium falciparum, UniProt Q8ILY1)', '% inhibition apPOL 180''', '10%'),
  ('O=[N+]([O-])c1ccc(/C=C/c2ccc3ccccc3n2)o1', 'P. falciparum apicoplast DNA polymerase (Pf-apPOL) (Plasmodium falciparum, UniProt Q8ILY1)', '% inhibition apPOL 180''', '61%'),
  ('O=C(Cn1ccc2c(=O)[nH]ccc21)Nc1ccc(Cl)cc1 [Molecule 36, O=C(Cn1ccc2c1cc[nH]c2=O)Nc1ccc(cc1)Cl]', 'P. falciparum apicoplast DNA polymerase (Pf-apPOL) (Plasmodium falciparum, UniProt Q8ILY1)', '% inhibition apPOL 180''', '48%'),
  ('COc1ccc(C(=O)Nc2cccc(-c3nc4ncccc4o3)c2)cc1[N+](=O)[O-]', 'P. falciparum apicoplast DNA polymerase (Pf-apPOL) (Plasmodium falciparum, UniProt Q8ILY1)', '% inhibition apPOL 180''', '8%'),
  ('Cc1cc(C)cc(-n2nc3c(c2NC(=O)c2ccco2)CSC3)c1', 'P. falciparum apicoplast DNA polymerase (Pf-apPOL) (Plasmodium falciparum, UniProt Q8ILY1)', '% inhibition apPOL 180''', '27%');

So what % inhibition apPOL 180' did CSC1=C(C#N)C(=C(C#N)C#N)NC(c2ccccc2)=N1 [Molecule 2, CSc1nc([nH]c(=C(C#N)C#N)c1C#N)c1ccccc1] get with P. falciparum apicoplast DNA polymerase (Pf-apPOL) (Plasmodium falciparum, UniProt Q8ILY1)?
36%

So what % inhibition apPOL 180' did COc1cccc(Oc2c(C(F)(F)F)oc3cc(OC(=O)N(C)C)ccc3c2=O)c1 get with P. falciparum apicoplast DNA polymerase (Pf-apPOL) (Plasmodium falciparum, UniProt Q8ILY1)?
24%

So what % inhibition apPOL 180' did COc1ccc(-c2occ(C(=O)O)c2C(=O)O)cc1 get with P. falciparum apicoplast DNA polymerase (Pf-apPOL) (Plasmodium falciparum, UniProt Q8ILY1)?
48%

----------
Target: UniProt:Q8ILY1
Assay: Fluorescence-based high-throughput DNA polymerase assay (molecular beacon), primary screen and dose-response
Format: biochemical
Conditions: DRC-1; 90'; concentration 5
Examples of compounds with documented % inhibition Apol 90' follow.
Output spec: scalar in %, unitless text.

Before answering, review these 10 worked examples.
INSERT INTO results (compound, uom, reading) VALUES
  ('O=C(Nc1nnc(-c2ccno2)o1)c1ccc2c(c1)OCO2 [KU0171343]', '%', -7.662),
  ('O=C(O)CC1SC(c2ccc3c(c2)OCO3)=NC1=O (stereo not drawn) [Molecule 69, OC(=O)CC1SC(=NC1=O)c1ccc2c(c1)OCO2]', '%', 2.259),
  ('COc1ccc(C)cc1NC(=O)Cn1ccc2c(=O)[nH]ccc21 [Molecule 15, COc1ccc(cc1NC(=O)Cn1ccc2c1cc[nH]c2=O)C]', '%', 18.8368),
  ('COc1ccc(C(=O)N2CCc3c(nc4cc(-c5ccccc5Cl)[nH]n4c3=O)C2)cn1 [Molecule 26]', '%', 11),
  ('O=C1c2ccccc2C(=O)N1Oc1ccc([N+](=O)[O-])c([N+](=O)[O-])c1 [Molecule 66]', '%', 9.738),
  ('O=[N+]([O-])/C=C/c1ccc(-c2ccc(Br)cc2)o1 [Molecule 31, O=N(=O)/C=C/c1ccc(o1)c1ccc(cc1)Br]', '%', 14.8546),
  ('Cc1cccc2c(C(=O)NC(C)C)cc(N(C)C)nc12 [Molecule 47, CC(NC(=O)c1cc(nc2c1cccc2C)N(C)C)C]', '%', 0.7023),
  ('CN(C)C=CC(=O)c1ccccn1 [Molecule 64, CN(C=CC(=O)c1ccccn1)C]', '%', 6.501),
  ('CCN1C(=O)C(=Cc2cccc(OC)c2O)SC1=S [Molecule 78, CCN1C(=S)SC(=Cc2cccc(c2O)OC)C1=O]', '%', -1.279),
  ('O=C(CSc1nc2ccccc2s1)Nc1ncc([N+](=O)[O-])s1 [KU0019667]', '%', 12.4734);

Read the next record carefully.
So what % inhibition Apol 90' did CC(NC(=O)Cc1cc(=O)[nH]c(SCc2cccc(Cl)c2)n1)c1ccccc1 (stereo not drawn) [Molecule 67] get with UniProt:Q8ILY1?
-6.461
